organism: Rattus norvegicus; test: The compound was tested for enhancement of electrically induced release of [3H]GABA from rat cortical slices.; type: functional
measured-property: EC150 (µM)
Give the quantity in µM, number only.

These recorded examples may help you get a feel for the data.
molecule | EC150 (µM)
CCCCP(=O)(O)CC(O)CN (stereo not drawn) | 8
NCC(O)CP(=O)(O)CC1CCCCC1 (stereo not drawn) | 8
CC(=O)CCP(=O)(O)CCCN | 4

Now look at this entry.
Recorded EC150 (molecule CCCCP(=O)(O)CCCN ): 38

###

Measured EC150 accompanies every entry in the list below.
organism: Rattus norvegicus; assay: The compound was tested for enhancement of electrically induced release of [3H]GABA from rat cortical slices.; format: functional
Write your answer as a measured quantity: the number, then the unit.

These recorded examples may help you get a feel for the data.
molecule | EC150
NCCCP(=O)(O)Cc1ccccn1 | 30 µM
NCCCP(=O)(O)Cc1ccc(F)cc1 | 10 µM
CCCCOC(OCCCC)P(=O)(O)CCCN | 300 µM
CCCP(=O)(O)CCCN | 30 µM
NC[C@H](O)CP(=O)(O)Cc1ccccc1 | 5 µM
NC[C@@H](O)CP(=O)(O)CC1CCCCC1 | 4 µM
NCC(=O)CP(=O)(O)CC1CCCCC1 | 5 µM
CCP(=O)(O)CCCN | 118 µM

Now look at this entry.
Recorded EC150 (molecule CP(=O)(O)CC(O)(CN)c1ccc(Cl)cc1 (centres undefined) ): 30 µM
